# target-desc: SbSOMT E310A (Sorghum bicolor, UniProt A0A1B6PFV1, E310A)
# assay-summary: biochemical
# Format: binding
# experimental-parameters: SbSOMT mutant E310A; ± SE; read-out: Kd
# Experimental: Desired mutations of SbSOMT were introduced into its construct using specific primers (Table 11). Expression constructs were transformed into Rosetta™ (DE3) competent Escherichia coli cells (Novagen, Germany). […] Isothermal titration calorimetry (ITC) assays were conducted with MicroCal iTC200 (Malvern Panalytical, UK). […] Results were analysed based on the 2nd to 20th injections using the Origin (MicroCal Software, USA) and PEAQ-ITC software (Malvern Panalytical, UK).
measured-quantity: pKd
Answers are plain numbers, as −log10 of the molar value.

The molecule listed as COc1cc(O)cc(/C=C/c2ccc(O)cc2)c1 has a reported pKd of 5.41

* * *

# target-desc: SbSOMT (Sorghum bicolor)
# assay-summary: Isothermal titration calorimetry (ITC), SbSOMT wild type
# Type: binding
measured-quantity: Kd (µM)
Give bare numbers, in µM.

The molecule listed as Oc1ccc(C=Cc2cc(O)cc(O)c2)cc1 has a reported Kd of 4.69

* * *

Would you mind telling me the reported pKd of each entry?
# target-desc: SbSOMT E310A (Sorghum bicolor, UniProt A0A1B6PFV1, E310A)
# assay-summary: biochemical
# Assay type: binding
# Protocol: Desired mutations of SbSOMT were introduced into its construct using specific primers (Table 11). Expression constructs were transformed into Rosetta™ (DE3) competent Escherichia coli cells (Novagen, Germany). […] Isothermal titration calorimetry (ITC) assays were conducted with MicroCal iTC200 (Malvern Panalytical, UK). […] Results were analysed based on the 2nd to 20th injections using the Origin (MicroCal Software, USA) and PEAQ-ITC software (Malvern Panalytical, UK).
Give bare numbers, as −log10 of the molar value.

Oc1ccc(C=Cc2cc(O)cc(O)c2)cc1 [Resveratrol, resveratrol] | 4.73

In the following, a different compound is considered.
The compound listed as COc1cc(/C=C/c2ccc(O)cc2)cc(OC)c1 [Pterostilbene, pterostilbene] has a reported pKd of 5.22

* * *

# target-desc: SbCOMT (Sorghum bicolor)
# assay-summary: Isothermal titration calorimetry (ITC), SbCOMT wild type
# Assay type: binding
# experimental-parameters: ITC, 25° C., SbCOMT WT; mean ± standard error from curve fitting; read-out: Kd
Would you mind telling me the reported pKd of each entry?
Answers are plain numbers, as −log10 of the molar value.

Count: 3. Required value per item: pKd.
1. COc1cc(/C=C/c2ccc(O)cc2)cc(OC)c1
2. COc1cc(O)cc(/C=C/c2ccc(O)cc2)c1
3. C[S+](CC[C@H](N)C(=O)O)C[C@H]1O[C@@H](n2cnc3c(N)ncnc32)[C@H](O)[C@@H]1O (stereo partly drawn)

Result:
[5.40, 5.75, 4.89]

* * *

Would you mind telling me the reported Kd of each entry?
# target-desc: SbSOMT (Sorghum bicolor, UniProt A0A1B6PFV1)
# assay-summary: Isothermal titration calorimetry (ITC), SbSOMT wild type
# Type: binding
# experimental-parameters: ITC, 25° C., SbSOMT WT; mean ± standard error from curve fitting; read-out: Kd
Give bare numbers, in µM.

C[S+](CC[C@H](N)C(=O)O)C[C@H]1O[C@@H](n2cnc3c(N)ncnc32)[C@H](O)[C@@H]1O (some centres unmarked) | 90

In the following, a different compound is considered.
The compound listed as COc1cc(O)cc(/C=C/c2ccc(O)cc2)c1 has a reported Kd of 2.86

* * *

# target-desc: SbSOMT D283A (Sorghum bicolor, UniProt A0A1B6PFV1, D283A)
# assay-summary: biochemical
measured-quantity: Kd (nM)
One number for each entry, in nM.

Measured Kd for this entry Oc1ccc(C=Cc2cc(O)cc(O)c2)cc1 on SbSOMT D283A (Sorghum bicolor, UniProt A0A1B6PFV1, D283A): 1310

* * *

# target-desc: SbSOMT I144N (Sorghum bicolor, UniProt A0A1B6PFV1, I144N)
# assay-summary: biochemical
measured-quantity: pKd
Answers are plain numbers, as −log10 of the molar value.

The molecule listed as Oc1ccc(C=Cc2cc(O)cc(O)c2)cc1 [Resveratrol, resveratrol] has a reported pKd of 3.82

* * *

# target-desc: SbSOMT H282N/D283A (Sorghum bicolor, UniProt A0A1B6PFV1, D283A/H282N)
# assay-summary: biochemical
measured-quantity: pKd
Give bare numbers, as −log10 of the molar value.

The compound listed as Oc1ccc(C=Cc2cc(O)cc(O)c2)cc1 [Resveratrol, resveratrol] has a reported pKd of 4.48
